Below, each entry is listed alongside its reported log10 GI50.
- Test system: DWD oral cancer cell line
- experimental-protocol: MTT assay, 48 h continuous drug exposure, DWD
- Format: cell-based, human
- condition-details: oral cancer cell line; 48 h exposure; MTT; read-out: GI50 DWD
- Experimental: For each compound, dose response curves for each cell line were measured at a minimum of five concentrations at 10 fold dilutions. A protocol of 48 h continuous drug exposure was used and a MTT assay was used to estimate cell viability or growth. The percent of cell growth (GI50) compared with the control was calculated.
quantity: log10 GI50 (log10 of the value in nM)

compound="COc1ccc(Oc2cc(OCCCCCOc3cc4c(cc3OC)C(=O)N3CCC[C@H]3C=N4)ccc2N)cc1OC [11g]" test_result=2.26
compound="COc1ccc(Oc2ccc(OCCCCCOc3cc4c(cc3OC)C(=O)N3CCC[C@H]3C=N4)cc2[N+](=O)[O-])cc1OC [20c]" test_result=2.11
compound="COc1ccc(Oc2ccc(OCCCCCOc3cc4c(cc3OC)C(=O)N3CCC[C@H]3C=N4)cc2I)cc1OC [17c]" test_result=3.43
compound="COc1cc2c(cc1OCCCCCOc1cccc(Oc3cc(OC)c(OC)c(OC)c3)c1[N+](=O)[O-])N=C[C@@H]1CCCN1C2=O [21g]" test_result=2.23
compound="COc1cc2c(cc1OCCCCCN1CCN(C(=O)c3ccc(Oc4cc(OC)c(OC)c(OC)c4)c(N)c3)CC1)N=C[C@@H]1CCCN1C2=O [24c]" test_result=2.20
compound="COc1cc2c(cc1OCCCCCOc1ccc(Oc3cc(OC)c(OC)c(OC)c3)c(I)c1)N=C[C@@H]1CCCN1C2=O [18c]" test_result=3.48
compound="COc1ccc(Oc2ccc(OCCCCCOc3cc4c(cc3OC)C(=O)N3CCC[C@H]3C=N4)cc2I)cc1 [16c]" test_result=3.41
